# methodNotes: Partition coefficient, log D at pH 7.4
# assayContext: octanol/water
valueKind: logD

>>> recordedvalue("O=C(O)c1ccc2c(C3CCCCC3)c(-c3ccccc3)[nH]c2n1")
3.3
>>> recordedvalue("O=C(O)c1c[nH]c2c(C3CCCCC3)c(-c3ccccc3)nc-2c1")
2.5

P: CN(C)C(=O)Cn1c(-c2ccccc2)c(C2CCCCC2)c2ccc(C(=O)O)nc21
Q: O=C(O)c1cc2[nH]c(-c3ccccc3)c(C3CCCCC3)c2s1
Ask | Hi, I'm comparing P with Q and wondering which one has the bigger number for logD. Any idea? Bench note: the answer is the label of the chosen record.
Reply | Q
(Q: 3.4, P: 1.1)
